SYSTEM: Adenosine receptor A1 (Rattus norvegicus, UniProt P25099)
Sequence (P25099 whole entry): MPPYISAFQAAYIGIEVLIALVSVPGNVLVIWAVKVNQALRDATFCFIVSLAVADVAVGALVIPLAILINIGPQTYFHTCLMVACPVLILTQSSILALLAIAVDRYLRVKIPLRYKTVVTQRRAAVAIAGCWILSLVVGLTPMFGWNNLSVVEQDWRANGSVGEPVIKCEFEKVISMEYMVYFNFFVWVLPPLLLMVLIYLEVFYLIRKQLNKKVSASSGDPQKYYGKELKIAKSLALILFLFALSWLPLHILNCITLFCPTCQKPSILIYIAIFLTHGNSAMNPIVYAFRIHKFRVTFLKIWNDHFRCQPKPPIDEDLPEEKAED
TEST NAME: Affinity for A1 adenosine receptor using [3H]-N6 -(phenylisopropyl)-adenosine (R)-[3H]-PIA in rat brain
Type: tissue-based
MEASURED QUANTITY: pKi
Field pKi (float): negative decimal logarithm of the concentration in molar.

Per the records, this compound ( CCCn1c(=O)c2nc(-c3ccc(OCC(=O)NCC=O)cc3)[nH]c2n(CCC)c1=O ) has pKi equal to 6.58

----------
SYSTEM: Adenosine receptors; A1 & A2 (Rattus norvegicus) (UniProt P29276+P25099+P30543)
TEST NAME: Relative affinities for Adenosine A2 and Adenosine A1 receptors
Format: protein assay
Provide the reported Ratio of each item.

Sure, the documented Ratio for CCCn1c(=O)c2nc(-c3ccc(OCC(=O)NCCNC(=O)C/N=C(\S)Nc4ccc(N=C=S)cc4)cc3)[nH]c2n(CCC)c1=O is 69

Given item CCCn1c(=O)c2nc(-c3ccc(OCC(=O)NCCN=C(S)Nc4cccc(N=C=S)c4)cc3)[nH]c2n(CCC)c1=O , the value recorded as its Ratio is 144

Record CCCn1c(=O)c2nc(-c3ccc(OCC(=O)NCCNS(=O)(=O)c4cccc(S(=O)(=O)Cl)c4)cc3)[nH]c2n(CCC)c1=O , field Ratio: 42

----------
SYSTEM: Adenosine A2 receptor (Rattus norvegicus, UniProt P29276+P30543)
TEST NAME: Inhibition of [3H]N-ethyladenosine-5'-uronamide binding to Adenosine A2 receptor of rat striatal membrane
MEASURED QUANTITY: Ki (µM)
Give your result in µM as a bare value.

The compound O=C(Cc1ccc(NC(=O)Cc2ccc(Nc3ncnc4c3ncn4C3O[C@H](CO)[C@@H](O)[C@H]3O)cc2)cc1)NCC/N=C(\S)Nc1cccc(N=C=S)c1 (stereo partly drawn) showed Ki equal to 0.176

The compound CCCn1c(=O)c2nc(-c3ccc(OCC(=O)NCCNS(=O)(=O)c4cccc(S(=O)(=O)Cl)c4)cc3)[nH]c2n(CCC)c1=O showed Ki equal to 0.105

Input CCCn1c(=O)c2nc(-c3ccc(OCC(=O)NCCN=C(S)Nc4cccc(N=C=S)c4)cc3)[nH]c2n(CCC)c1=O . Output Ki: 0.343

Field Ki (entry CCCn1c(=O)c2nc(-c3ccc(OCC(=O)NCCNC(=O)CCCCCCC(=O)ON4C(=O)CCC4=O)cc3)[nH]c2n(CCC)c1=O ) reads 0.207

For O=C(Cc1ccc(NC(=O)Cc2ccc(Nc3ncnc4c3ncn4C3O[C@H](CO)[C@@H](O)[C@H]3O)cc2)cc1)NCC/N=C(\S)Nc1ccc(N=C=S)cc1 (stereo partly drawn) the compound record lists Ki as 0.191

The compound listed as CCCn1c(=O)c2nc(-c3ccc(OCC(=O)NCCN=C(S)Nc4ccc(N=C=S)cc4)cc3)[nH]c2n(CCC)c1=O has a reported Ki of 0.321

// CCCn1c(=O)c2nc(-c3ccc(OCC(=O)NCCN=C(S)Nc4ccc(S(=O)(=O)[O-])cc4)cc3)[nH]c2n(CCC)c1=O.[Na+] : Ki value = 1.45

Form: compound = CCCn1c(=O)c2nc(-c3ccc(OCC(=O)NCCNC(=O)Cc4ccc(N/C(S)=N/c5ccc(N=C=S)cc5)cc4)cc3)[nH]c2n(CCC)c1=O ; Ki = 0.655

meta.source: ChEMBL document CHEMBL1124458
